Below, each entry is listed alongside its reported %Inh.
System: TLK2
setup-conditions: concentration: 1 μM, replicates: in singlicate; n = 1;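 note: KINOMEscan kinase panel screen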
Response body: numeric value in %, unit text excluded.

Here is how some molecules turned out for %Inh.
Cn1cc(-c2ccc3c(c2)CCN3C(=O)Cc2cc(F)cc(C(F)(F)F)c2)c2c(N)ncnc21 : 5
N#CC1(c2cccc(C(=O)Nc3cccc(Oc4ccc5nc(NC(=O)C6CC6)sc5n4)c3)c2)CC1 : 0
Fc1cc(Cl)ccc1Nc1ccnc2cc(-c3ccc(CN4CCOCC4)o3)ccc12 : 0
COc1cccc(-c2nc(-c3ccccc3)[nH]c2-c2ccncc2)c1 : 0

Query: What value of measured %Inh is listed for "CNc1nccc(-c2ccc3c(N)n[nH]c3c2)n1" ?
Reply: 1

Query: What value of measured %Inh is listed for CC(C)NCC(Cc1ccccc1)NC(=O)c1cc(Br)c(-c2ccnc3[nH]ccc23)s1.Cl.Cl (stereo not shown) ?
Reply: 13

Query: What value of measured %Inh is listed for "O=C(Nc1n[nH]c2cc(-c3cccs3)ccc12)C1CC1" ?
Reply: 0

Query: What value of measured %Inh is listed for "COc1cc(Nc2nccc(N3CCC(NS(=O)(=O)c4ccc(NC(C)=O)cc4)CC3)n2)cc(OC)c1OC" ?
Reply: 0

Query: What value of measured %Inh is listed for "Nc1ncc(-c2cn[nH]c2)c2scc(-c3ccc4c(c3)CCN4C(=O)Cc3ccccc3)c12" ?
Reply: 0

Query: What value of measured %Inh is listed for "Nc1ncc(-c2ccc3nccc(-c4ccncc4)c3c2)cc1S(=O)(=O)N1CCCCC1" ?
Reply: 0

Query: What value of measured %Inh is listed for "CC(C)(C)c1ccc(C(=O)Nc2cn3cc(-n4ccnc4)ccc3n2)cc1" ?
Reply: 0

Query: What value of measured %Inh is listed for "COc1ccc(C2=C(Nc3cccc(O)c3)C(=O)NC2=O)cc1" ?
Reply: 4

Query: What value of measured %Inh is listed for "Cc1nn2c(=O)cc(N3CCO[C@H](C)C3)nc2n1Cc1cccc(Cl)c1Cl" ?
Reply: 0

###

Tested on: MAP4K2
setup-conditions: concentration: 1 μM, replicates: in singlicate; n = 1
Each entry gets false if its %Inh stays under 9%, and true if its %Inh is 9% or above.

CC(=O)Nc1cn2nc(Oc3cccc(NC(=O)c4cccc(C(F)(F)F)c4)c3)ccc2n1 : false
Nc1cccc(-c2ccc3c(N)n[nH]c3c2)c1 : true

Query: Given "Cc1cc(-c2ccnc(Nc3cccc(C#N)c3)n2)cc(C)c1O" , state whether its %Inh is at least 9%.
Reply: true

Query: Given "Cl.N#CCc1ccc(Nc2nccc(Nc3ccc(Oc4ccccc4)cc3)n2)cc1" , state whether its %Inh is at least 9%.
Reply: false

Query: Given "CN(C)CCNS(=O)(=O)c1ccc(-c2ccnc3[nH]ccc23)cc1" , state whether its %Inh is at least 9%.
Reply: true

Query: Given "COc1cccc(NC(=O)NCCNc2ccnc(Nc3ccc(F)cc3)n2)c1" , state whether its %Inh is at least 9%.
Reply: false

Query: Given "CN1CCN(Cc2ccc(NC(=O)Nc3ccc(N(C)c4ccnc(Nc5ccc(CS(C)(=O)=O)cc5)n4)cc3)cc2)CC1.Cl" , state whether its %Inh is at least 9%.
Reply: true

Query: Given "CSc1ccc(NC2=C(c3ccc(Cl)cc3)C(=O)NC2=O)cc1" , state whether its %Inh is at least 9%.
Reply: true

Query: Given "CCNC(=O)/C=C/c1n[nH]c2cc(Sc3ccccc3C(=O)NC)ccc12" , state whether its %Inh is at least 9%.
Reply: true

Query: Given "COc1ccc(NC(=O)c2ccoc2)cc1-c1ccc(C(=O)NCC2CC2)cc1" , state whether its %Inh is at least 9%.
Reply: true

Query: Given "Cc1ccc(NC(=O)c2ccc(Cl)c(Cl)c2)cc1-c1ccc(C(=O)Nc2ccncc2)cc1" , state whether its %Inh is at least 9%.
Reply: false

Query: Given "Cc1cccc(Nc2nc(NCCN)ncc2C(N)=O)c1" , state whether its %Inh is at least 9%.
Reply: true

Query: Given "Cc1cc(-c2c(-c3ccc(F)cc3)ncn2CCCN2CCOCC2)nc(N)n1" , state whether its %Inh is at least 9%.
Reply: false

Query: Given "CN(c1ccc(F)c(NC(=O)c2cccc(OC(C)(C)C#N)c2Cl)c1)c1ccc2nc(NC(=O)C3CC3)sc2n1" , state whether its %Inh is at least 9%.
Reply: false

Query: Given "COc1ccc(C)c(Nc2ccnc(Nc3ccc(-c4cnc[nH]4)cc3)n2)c1.Cl" , state whether its %Inh is at least 9%.
Reply: false

Query: Given "O=C(O)C(F)(F)F.O=c1[nH]ccc2nc(N[C@@H]3CCNC3)nc(Nc3ccc4c(c3)S(=O)(=O)CC4)c12" , state whether its %Inh is at least 9%.
Reply: true

Query: Given "CNc1nccc(-c2ccc3c(N)n[nH]c3c2)n1" , state whether its %Inh is at least 9%.
Reply: true

Query: Given "Fc1cc(Cl)ccc1Nc1ccnc2cc(-c3ccc(CN4CCOCC4)o3)ccc12" , state whether its %Inh is at least 9%.
Reply: false

Query: Given "O=C(Nc1n[nH]c2nc(-c3ccccc3)ccc12)C1CC1" , state whether its %Inh is at least 9%.
Reply: false

Query: Given CC(C)NCC(Cc1ccccc1)NC(=O)c1cc(Br)c(-c2ccnc3[nH]ccc23)s1.Cl.Cl (stereo not drawn) , state whether its %Inh is at least 9%.
Reply: false

Query: Given "O=C1NC(=O)C(c2ccccc2Cl)=C1Nc1cccc(Cl)c1" , state whether its %Inh is at least 9%.
Reply: false

Query: Given "Cc1ccc(NC(=O)c2cccc(N3CCCCC3)c2)cc1-c1ccc(C(=O)NCC2CC2)cc1" , state whether its %Inh is at least 9%.
Reply: false

Query: Given "CC(C)(C)c1ccc(C(=O)Nc2cn3cc(-n4ccnc4)ccc3n2)cc1" , state whether its %Inh is at least 9%.
Reply: true

Query: Given "CN(C)CCOc1ccc(-c2cc(-c3ccc(Cl)c(O)c3)c(-c3ccncc3)[nH]2)cc1.Cl.Cl" , state whether its %Inh is at least 9%.
Reply: true
